Listed next: entries and their corresponding LD50.
# Test system: Nephotettix cincticeps
# protocol_notes: Insecticidal activity against drug-susceptible Nephotettix cincticeps Ageo (green rice leafhopper) assessed as mortality after 2 days by foliar spraying method
# Format: functional
# condition_notes: 48 h

{"compound": "CC(C)CS(=O)(=O)c1ccnc(OS(C)(=O)=O)c1", "LD50 (mg/kg)": 0.72}
{"compound": "CC(C)CSc1cccc(OS(C)(=O)=O)n1", "LD50 (mg/kg)": 1.06}
{"compound": "CC(C)C[S+]([O-])c1cccc(OS(C)(=O)=O)c1 (stereo not drawn)", "LD50 (mg/kg)": 3.18}
{"compound": "CC(C)CS(=O)(=O)c1cccc(OS(C)(=O)=O)n1", "LD50 (mg/kg)": 1.15}
{"compound": "CC(C)CS(=O)(=O)c1nc(OS(C)(=O)=O)cs1", "LD50 (mg/kg)": 0.52}
{"compound": "CC(C)CSc1nc(OS(C)(=O)=O)cs1", "LD50 (mg/kg)": 14.9}
{"compound": "CC(C)CS(=O)(=O)c1cccc(OS(C)(=O)=O)c1", "LD50 (mg/kg)": 13}
{"compound": "CCC(C)c1ccccc1OC(=O)NC (stereo not drawn)", "LD50 (mg/kg)": 11.8}

###

# protocol_notes: Drug degradation in sorensen buffer assessed as hydrolysis at 3 x 10^-5 M at pH 7.4 after 24 hr
# Type: physicochemical
# condition_notes: read-out: Drug degradation
I would appreciate it if you labelled entries rule met when degraded at 24 h, 30 µM is 10% or higher, otherwise rule not met.

{"molecule": "CC(C)CSc1cc(OS(C)(=O)=O)ccn1", "assigned_class": "rule not met"}
{"molecule": "CC(C)CSc1cccc(OS(C)(=O)=O)n1", "assigned_class": "rule not met"}
{"molecule": "CC(C)CSc1cc(OS(C)(=O)=O)ncn1", "assigned_class": "rule met"}
{"molecule": "CC(C)CSc1nccc(OS(C)(=O)=O)n1", "assigned_class": "rule met"}
{"molecule": "CC(C)CSc1ccnc(OS(C)(=O)=O)c1", "assigned_class": "rule not met"}
{"molecule": "CC(C)CSc1cccc(OS(C)(=O)=O)c1 [3-(ISOBUTYLTHIO)PHENYL METHANESULFONATE]", "assigned_class": "rule not met"}
{"molecule": "CC(C)CSc1cncc(OS(C)(=O)=O)n1", "assigned_class": "rule met"}
{"molecule": "CC(C)CSc1cncc(OS(C)(=O)=O)c1", "assigned_class": "rule not met"}

###

# Tested on: Nephotettix cincticeps
# protocol_notes: Insecticidal activity against drug-susceptible Nephotettix cincticeps Ageo (green rice leafhopper) assessed as mortality […] after 2 days by foliar spraying method
# Assay type: functional
# condition_notes: 48 h
// NB: equality with 5 mg/kg counts as not met; only LD50 strictly below is met

{"molecule": "CC(C)CSc1ccnc(OS(C)(=O)=O)c1", "assigned_class": "met"}
{"molecule": "CC(C)CSc1cccc(OS(C)(=O)=O)c1 [3-(ISOBUTYLTHIO)PHENYL METHANESULFONATE]", "assigned_class": "not met"}
{"molecule": "CC(C)CSc1cc(OS(C)(=O)=O)ncn1", "assigned_class": "not met"}
{"molecule": "CC(C)CSc1cncc(OS(C)(=O)=O)c1", "assigned_class": "met"}
{"molecule": "CC(C)CSc1nccc(OS(C)(=O)=O)n1", "assigned_class": "not met"}
{"molecule": "CC(C)CSc1cccc(OS(C)(=O)=O)n1", "assigned_class": "met"}
{"molecule": "CC(C)CSc1cncc(OS(C)(=O)=O)n1", "assigned_class": "met"}
{"molecule": "CC(C)CSc1nc(OS(C)(=O)=O)cs1", "assigned_class": "not met"}
{"molecule": "CC(C)CSc1cc(OS(C)(=O)=O)ccn1", "assigned_class": "not met"}

###

# System: Nilaparvata lugens
# protocol_notes: Insecticidal activity against Nilaparvata lugens (brown planthopper) assessed as mortality at 200 ppm after 6 days by foliar spraying method
# Format: functional
# condition_notes: 144 h
Listed next: entries and their corresponding mortality at 200 ppm.

{"structure_smiles": "CC(C)CSc1nccc(OS(C)(=O)=O)n1", "mortality at 200 ppm (%)": 20}
{"structure_smiles": "CC(C)CSc1ccc(OS(C)(=O)=O)nn1", "mortality at 200 ppm (%)": 0}
{"structure_smiles": "CC(C)CSc1nc(OS(C)(=O)=O)cc2ccccc12", "mortality at 200 ppm (%)": 60}
{"structure_smiles": "CC(C)CSc1cc(OS(C)(=O)=O)ccn1", "mortality at 200 ppm (%)": 100}
{"structure_smiles": "CC(C)CSc1cc(OS(C)(=O)=O)ncn1", "mortality at 200 ppm (%)": 100}
{"structure_smiles": "CC(C)CSc1nnc(OS(C)(=O)=O)s1", "mortality at 200 ppm (%)": 20}
{"structure_smiles": "CC(C)CSc1cc2ccccc2c(OS(C)(=O)=O)n1", "mortality at 200 ppm (%)": 10}
{"structure_smiles": "CC(C)CSc1cccnc1OS(C)(=O)=O", "mortality at 200 ppm (%)": 90}

###

# measured_on: Acetylcholinesterase (Musca domestica)
# Sequence (Q7YWJ9 whole entry): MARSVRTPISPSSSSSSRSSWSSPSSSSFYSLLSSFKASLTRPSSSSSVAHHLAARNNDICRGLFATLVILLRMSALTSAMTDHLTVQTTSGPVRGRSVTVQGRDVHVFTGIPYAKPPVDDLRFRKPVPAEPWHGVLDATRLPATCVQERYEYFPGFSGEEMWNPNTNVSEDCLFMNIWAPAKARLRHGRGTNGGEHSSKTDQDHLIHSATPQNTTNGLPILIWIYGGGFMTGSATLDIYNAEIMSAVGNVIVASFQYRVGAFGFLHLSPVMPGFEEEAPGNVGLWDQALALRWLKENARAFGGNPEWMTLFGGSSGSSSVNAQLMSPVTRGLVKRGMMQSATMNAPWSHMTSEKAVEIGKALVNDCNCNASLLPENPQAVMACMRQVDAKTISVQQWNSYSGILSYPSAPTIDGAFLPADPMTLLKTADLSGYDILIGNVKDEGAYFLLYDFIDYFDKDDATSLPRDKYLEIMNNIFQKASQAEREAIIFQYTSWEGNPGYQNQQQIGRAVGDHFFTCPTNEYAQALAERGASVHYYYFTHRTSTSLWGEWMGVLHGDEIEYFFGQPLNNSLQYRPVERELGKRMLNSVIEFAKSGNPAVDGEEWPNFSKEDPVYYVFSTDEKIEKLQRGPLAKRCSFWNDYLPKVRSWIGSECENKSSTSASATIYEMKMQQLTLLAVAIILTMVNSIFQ
pIC50: −log10 of the molar value.
I would appreciate it if you labelled entries Met when pIC50 is 6 or higher, otherwise Not met.

{"molecule": "CC(C)C[S+]([O-])c1cccc(OS(C)(=O)=O)c1 (stereo unspecified)", "measured_on": "Acetylcholinesterase (Musca domestica)", "assigned_class": "Not met"}
{"molecule": "CC(C)CS(=O)(=O)c1cccc(OS(C)(=O)=O)c1", "measured_on": "Acetylcholinesterase (Musca domestica)", "assigned_class": "Met"}
{"molecule": "CNC(=O)Oc1cccc2ccccc12", "measured_on": "Acetylcholinesterase (Musca domestica)", "assigned_class": "Met"}
{"molecule": "CC(C)CS(=O)(=O)c1cccc(OS(C)(=O)=O)n1", "measured_on": "Acetylcholinesterase (Musca domestica)", "assigned_class": "Met"}
{"molecule": "CC(C)CS(=O)(=O)c1nc(OS(C)(=O)=O)cs1", "measured_on": "Acetylcholinesterase (Musca domestica)", "assigned_class": "Met"}

###

Listed next: entries and their corresponding mortality at 200 ppm.
# Tested on: Nilaparvata lugens
# protocol_notes: Insecticidal activity against Nilaparvata lugens (brown planthopper) assessed as mortality at 200 ppm after 2 days by foliar spraying method
# Format: functional
# condition_notes: 48 h

{"compound": "CC(C)CSc1ccc(OS(C)(=O)=O)nc1", "mortality at 200 ppm": "100%"}
{"compound": "CC(C)CSc1nccc(OS(C)(=O)=O)n1", "mortality at 200 ppm": "20%"}
{"compound": "CC(C)CSc1nc(OS(C)(=O)=O)cs1", "mortality at 200 ppm": "100%"}
{"compound": "CC(C)CSc1nnc(OS(C)(=O)=O)s1", "mortality at 200 ppm": "0%"}
{"compound": "CC(C)CSc1cccnc1OS(C)(=O)=O", "mortality at 200 ppm": "50%"}
{"compound": "CC(C)CSc1nc(OS(C)(=O)=O)cc2ccccc12", "mortality at 200 ppm": "0%"}
{"compound": "CC(C)CSc1cc(OS(C)(=O)=O)ncn1", "mortality at 200 ppm": "80%"}
{"compound": "CC(C)CSc1cccc(OS(C)(=O)=O)c1 [3-(ISOBUTYLTHIO)PHENYL METHANESULFONATE]", "mortality at 200 ppm": "100%"}
{"compound": "CC(C)CSc1cc(OS(C)(=O)=O)ccn1", "mortality at 200 ppm": "70%"}
{"compound": "CC(C)CSc1ccc(OS(C)(=O)=O)nn1", "mortality at 200 ppm": "0%"}
{"compound": "CC(C)CSc1cncc(OS(C)(=O)=O)n1", "mortality at 200 ppm": "100%"}
{"compound": "CC(C)CSc1cc2ccccc2c(OS(C)(=O)=O)n1", "mortality at 200 ppm": "0%"}
{"compound": "CC(C)CSc1ccnc(OS(C)(=O)=O)c1", "mortality at 200 ppm": "100%"}
{"compound": "CC(C)CSc1cccc(OS(C)(=O)=O)n1", "mortality at 200 ppm": "100%"}
{"compound": "CC(C)CSc1cncc(OS(C)(=O)=O)c1", "mortality at 200 ppm": "100%"}

###

# Test system: Culex pipiens
# protocol_notes: Insecticidal activity against Culex pipiens assessed as mortality at 200 ppm after 2 days by immersion method
# Type: functional
# condition_notes: 48 h
// NB: equality with 40% counts as FALSE; only mortality at 200 ppm strictly below is TRUE

{"compound": "CC(C)CSc1cccc(OS(C)(=O)=O)c1 [3-(ISOBUTYLTHIO)PHENYL METHANESULFONATE]", "assigned_class": "FALSE"}
{"compound": "CC(C)CSc1nccc(OS(C)(=O)=O)n1", "assigned_class": "TRUE"}
{"compound": "CC(C)CSc1cccc(OS(C)(=O)=O)n1", "assigned_class": "FALSE"}
{"compound": "CC(C)CSc1cc(OS(C)(=O)=O)ccn1", "assigned_class": "FALSE"}
{"compound": "CC(C)CSc1ccnc(OS(C)(=O)=O)c1", "assigned_class": "FALSE"}
{"compound": "CC(C)CSc1nnc(OS(C)(=O)=O)s1", "assigned_class": "TRUE"}
{"compound": "CC(C)CSc1cncc(OS(C)(=O)=O)c1", "assigned_class": "FALSE"}
{"compound": "CC(C)CSc1cc2ccccc2c(OS(C)(=O)=O)n1", "assigned_class": "FALSE"}
{"compound": "CC(C)CSc1cccnc1OS(C)(=O)=O", "assigned_class": "TRUE"}
{"compound": "CC(C)CSc1ccc(OS(C)(=O)=O)nc1", "assigned_class": "TRUE"}
{"compound": "CC(C)CSc1ccc(OS(C)(=O)=O)nn1", "assigned_class": "TRUE"}
{"compound": "CC(C)CSc1cncc(OS(C)(=O)=O)n1", "assigned_class": "FALSE"}
{"compound": "CC(C)CSc1nc(OS(C)(=O)=O)cs1", "assigned_class": "FALSE"}
{"compound": "CC(C)CSc1cc(OS(C)(=O)=O)ncn1", "assigned_class": "TRUE"}
